tgt: TEAD2 (Homo sapiens (Human), UniProt Q15562)
Sequence (Q15562 whole entry, species assumed): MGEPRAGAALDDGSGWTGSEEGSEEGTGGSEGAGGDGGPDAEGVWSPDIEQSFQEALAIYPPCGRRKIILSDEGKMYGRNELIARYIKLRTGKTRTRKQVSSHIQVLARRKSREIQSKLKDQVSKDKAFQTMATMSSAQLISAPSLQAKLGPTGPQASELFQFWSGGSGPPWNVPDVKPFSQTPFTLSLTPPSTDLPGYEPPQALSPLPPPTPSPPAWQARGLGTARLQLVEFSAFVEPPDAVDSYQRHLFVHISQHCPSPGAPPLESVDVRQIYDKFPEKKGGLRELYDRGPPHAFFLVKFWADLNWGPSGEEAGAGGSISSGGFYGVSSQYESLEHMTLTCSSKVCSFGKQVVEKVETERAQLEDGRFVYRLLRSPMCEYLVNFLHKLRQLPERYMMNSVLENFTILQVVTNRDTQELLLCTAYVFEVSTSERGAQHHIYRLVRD
pIC50: −log10 of the molar value.
Response key: 1 means pIC50 >= 7; 0 means pIC50 < 7.

| compound-structure-string | assigned-category |
| --- | --- |
| O=C(C1=CCOC1)N1CC(c2nn(-c3ccc(OC(F)(F)F)cc3)c3nccc(CO)c23)C1 | 0 |
| C=CC(=O)N1CC(c2nn(-c3ccc(OC(F)(F)F)cc3)c3nccc([C@@H](O)CO)c23)C1 | 1 |
| O=C(C#CCO)NCc1nn(-c2ccc(OC(F)(F)F)cc2)c2nccc(CO)c12 | 1 |
| C=CC(=O)NCc1nn(-c2ccc(OC(F)(F)F)cc2)c2nccc(-c3cn[nH]c3)c12 | 1 |
| COC/C=C/C(=O)N1CC(c2nn(-c3ccc(OC(F)(F)F)cc3)c3nccc(CO)c23)C1 | 1 |
| C=C(F)C(=O)N1CC(c2nn(-c3ccc(OC(F)(F)F)cc3)c3nccc([C@H](O)CO)c23)C1 | 1 |

====

# IC50 per record follows
tgt: TEAD3 (Homo sapiens (Human))
procedure-details: TR-FRET lipid pocket probe competition assay (Lipid HTRF), TEAD3
Format: binding
assay-setup: 4 hours pre-incubation; read-out: Lipid HTRF TEAD3 IC50

| compound | IC50 (µM) |
| --- | --- |
| O=C(/C=C/CO)N1CC(c2nn(-c3ccc(OC(F)(F)F)cc3)c3nccc(-c4cn[nH]c4)c23)C1 [Compound 50] | 0.2 |
| C=CC(=O)NCc1nn(-c2cccc(OC(F)(F)F)c2)c2nccc([C@H](O)CO)c12 (stereo in doubt) [Compound 73] | 0.29 |
| C=CC(=O)NCc1nn(-c2ccc(OC(F)(F)F)cc2)c2nccc(N3CC(NC(C)=O)C3)c12 [Compound 116] | 14 |
| C=C(F)C(=O)N1CC(c2nn(-c3ccc(OC(F)(F)F)cc3)c3nccc(-c4c[nH]cn4)c23)C1 [Compound 130] | 5.4 |
| C=CC(=O)NCc1nn(-c2ccc(OC(F)(F)F)cc2)c2nccc(NC(=O)CO)c12 [Compound 24] | 0.405 |
| C/C=C(\C)C(=O)N1CC(c2nn(-c3ccc(OC(F)(F)F)cc3)c3nccc(CO)c23)C1 [Compound 151] | 50 |
| C=C(F)C(=O)N1CC(c2nn(-c3ccc(OC(F)(F)F)cc3)c3nccc(-c4cnn(CC(=O)N(C)C)c4)c23)C1 [Compound 180] | 50 |
| C=C(F)C(=O)N1CC(c2nn(-c3ccc(OC(F)(F)F)cc3)c3nccc(-c4cnn(CCN(C)C)c4)c23)C1 [Compound 45] | 50 |
| C=CC(=O)N(C)Cc1nn(-c2ccc(OC(F)(F)F)cc2)c2nccc(CO)c12 [Compound 55] | 0.16 |
| C=CC(=O)NCc1nn(-c2ccc(OC(F)(F)F)cc2)c2nccc(O[C@H]3C[C@H](O)C3)c12 [Compound 67] | 50 |
| C=CC(=O)NCc1nn(-c2ccc(OC(F)(F)F)cc2)c2nccc([C@H]3C[C@@H](O)C3)c12 [Compound 38] | 50 |
| O=C(/C=C/CO)N1CC(c2nn(-c3ccc(OC(F)(F)F)cc3)c3nccc(Cl)c23)C1 [Compound 127] | 0.013 |
| O=C(/C=C/CO)N1CC(c2nn(-c3ccc(OC(F)(F)F)cc3)c3nccc([C@H](O)CO)c23)C1 [Compound 108] | 0.14 |
| C=CC(=O)NCc1nn(-c2ccc(OC(F)(F)F)cc2)c2nccc(N3CC(OC)C3)c12 [Compound 118] | 50 |
| C=C(F)C(=O)N1CC(c2nn(-c3ccc(OC(F)(F)F)cc3)c3nccc([C@@H](O)CO)c23)C1 [Compound 21] | 0.0385 |

====

pIC50: −log10 of the molar value.
Measured pIC50 on UniProtKB Q15562 follows.
measured-parameter: pIC50

| molecule | tgt | measured-parameter | measurement |
| --- | --- | --- | --- |
| C/C=C/C(=O)NCc1nn(-c2ccc(OC(F)(F)F)cc2)c2nccc(CO)c12 | UniProtKB Q15562 | pIC50 | 5.64 |
| O=C(C1=CCC1)N1CC(c2nn(-c3ccc(OC(F)(F)F)cc3)c3nccc([C@@H](O)CO)c23)C1 [Compound 115] | UniProtKB Q15562 | pIC50 | 8.22 |
| O=C(/C=C/CO)N1CC(c2nn(-c3ccc(OC(F)(F)F)cc3)c3nccc(CO)c23)C1 | UniProtKB Q15562 | pIC50 | 7.54 |
| O=C(C1=CCC1)N1CC(c2nn(-c3ccc(OC(F)(F)F)cc3)c3nccc([C@@H](O)CO)c23)C1 [Compound 157] | UniProtKB Q15562 | pIC50 | 8.24 |
| C=C(F)C(=O)N1CC(c2nn(-c3ccc(OC(F)(F)F)cc3)c3nccc(-n4ccnc4)c23)C1 | UniProtKB Q15562 | pIC50 | 6.77 |
| C=CC(=O)N(C)Cc1nn(-c2ccc(OC(F)(F)F)cc2)c2nccc([C@@H](O)CO)c12 | UniProtKB Q15562 | pIC50 | 6.15 |
| C=C(Cl)C(=O)N1CC(c2nn(-c3ccc(OC(F)(F)F)cc3)c3nccc([C@H](O)CO)c23)C1 | UniProtKB Q15562 | pIC50 | 8.11 |
| C=CC(=O)N(C)Cc1nn(-c2ccc(OC(F)(F)F)cc2)c2nccc([C@H](O)CO)c12 | UniProtKB Q15562 | pIC50 | 7.59 |
| C=CC(=O)NCc1nn(-c2ccc(OC(F)(F)F)cc2)c2nccc([C@H]3C[C@@H](O)C3)c12 | UniProtKB Q15562 | pIC50 | 7.00 |
| C=CC(=O)NCc1nn(-c2ccc(OC(F)(F)F)cc2)c2nccc(N3CC(O)(CO)C3)c12 | UniProtKB Q15562 | pIC50 | 6.70 |
| C#Cc1ccnc2c1c(C1CN(C(=O)C=C)C1)nn2-c1ccc(OC(F)(F)F)cc1 | UniProtKB Q15562 | pIC50 | 8.64 |
| CC#CC(=O)NCc1nn(-c2ccc(OC(F)(F)F)cc2)c2nccc(CO)c12 | UniProtKB Q15562 | pIC50 | 7.12 |
| N#Cc1ccnc2c1c(C1CN(C(=O)/C=C/CO)C1)nn2-c1ccc(OC(F)(F)F)cc1 | UniProtKB Q15562 | pIC50 | 7.22 |
| O=C(/C=C/CO)N1CC(c2nn(-c3ccc(OC(F)(F)F)cc3)c3ccnc(N4CC(O)C4)c23)C1 | UniProtKB Q15562 | pIC50 | 5.47 |
| C=C(F)C(=O)N1CC(c2nn(-c3ccc(OC(F)(F)F)cc3)c3nccc([C@@H](O)CO)c23)C1 | UniProtKB Q15562 | pIC50 | 8.14 |

====

tgt: TEAD3 (Homo sapiens (Human), UniProt Q99594)
Sequence (Q99594 whole entry, species assumed): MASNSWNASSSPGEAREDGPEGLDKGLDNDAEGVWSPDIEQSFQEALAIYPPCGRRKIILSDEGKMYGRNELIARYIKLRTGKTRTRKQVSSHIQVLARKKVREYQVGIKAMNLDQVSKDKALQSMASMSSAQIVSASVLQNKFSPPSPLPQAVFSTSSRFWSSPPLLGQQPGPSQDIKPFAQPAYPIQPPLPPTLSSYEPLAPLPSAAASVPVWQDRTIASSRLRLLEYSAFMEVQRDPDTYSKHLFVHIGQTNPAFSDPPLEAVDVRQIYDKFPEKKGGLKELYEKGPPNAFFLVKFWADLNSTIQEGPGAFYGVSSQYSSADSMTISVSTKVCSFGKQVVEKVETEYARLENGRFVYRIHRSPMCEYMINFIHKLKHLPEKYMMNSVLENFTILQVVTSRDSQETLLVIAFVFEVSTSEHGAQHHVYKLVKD
procedure-details: TR-FRET lipid pocket probe competition assay (Lipid HTRF), TEAD3
Type: binding
assay-setup: 4 hours pre-incubation; read-out: Lipid HTRF TEAD3 IC50

| compound | IC50 |
| --- | --- |
| C=C(F)C(=O)N1CC(c2nn(-c3ccc(OC(F)(F)F)cc3F)c3nccc(CO)c23)C1 | 260 nM |
| O=C(C1=CCC1)N1CC(c2nn(-c3ccc(OC(F)(F)F)cc3)c3nccc([C@@H](O)CO)c23)C1 [Compound 157] | 17 nM |
| C=CC(=O)NCc1nn(-c2ccc(OC(F)(F)F)cc2)c2nccc(N3CC(C#N)C3)c12 | 3500 nM |
| C=CC(=O)NCc1nn(-c2ccc(S(F)(F)(F)(F)F)cc2)c2cccc([C@H](O)CO)c12 (single isomer, unassigned) | 1300 nM |
| O=C(C#CCO)NCc1nn(-c2ccc(OC(F)(F)F)cc2)c2nccc(CO)c12 | 72 nM |
| C=CC(=O)N1CC(c2nn(-c3ccc(OC(F)(F)F)cc3)c3nccc([C@@H](O)CO)c23)C1 | 16 nM |
| O=C(NCc1nn(-c2ccc(OC(F)(F)F)cc2)c2nccc([C@H](O)CO)c12)C1=CCC1 | 740 nM |

====

tgt: TEAD2 (Homo sapiens (Human), UniProt Q15562)
pIC50: −log10 of the molar value.
Lab note: compare pIC50 against 7. Equal or greater, write 1.0. Smaller, write 0.0.

| compound-structure-string | assigned-category |
| --- | --- |
| C=C(C)S(=O)(=O)N1CC(c2nn(-c3ccc(OC(F)(F)F)cc3)c3nccc([C@H](O)CO)c23)C1 | 1.0 |
| C=CC(=O)NCc1nn(-c2ccc(S(F)(F)(F)(F)F)cc2)c2nccc(CO)c12 | 0.0 |
| C=C(F)C(=O)N1CC(c2nn(-c3ccc(OC(F)(F)F)cc3C)c3nccc(CO)c23)C1 | 0.0 |

Hey, just so you know, these numbers are from patent US12110276B2.
